System tested: 3-hydroxyacyl-CoA dehydrogenase type-2 (Homo sapiens) (UniProt Q99714)
Measurement protocol: qHTS Assay for Inhibitors of HSD17B4, hydroxysteroid (17-beta) dehydrogenase 4
Run parameters: recombinant HSD17B10, NADH fluorescence kinetic; series mostly up to 57.1 µM
Screen size: about 75,000 compounds; about 5,700 (7.6%) were called active. Inconclusive results (about 7%) are left out. The call rests on the fitted dose curve; in most records, active means well fitted inhibition curve with a large enough effect; inconclusive means small, poorly fitted or top-dose-only effect; inactive means no such curve, though single readings can be large or run the other way. For the sample, actives were picked, then their nearest neighbours and some compounds at random.
Output constraint: value belongs to active, inactive

Consider the following illustrative entries.
Cc1ncn(C23CC4CC(CC(O)(C4)C2)C3)n1: inactive
CC1(C)Cc2cccc(OCC(=O)Nc3nccs3)c2O1: inactive
CC(C)(C)[Si](OCC[C@@H]1C[C@@]1(C)[C@@H](NP(=O)(c1ccccc1)c1ccccc1)c1ccccc1)(c1ccccc1)c1ccccc1: inactive
Cc1ccc(NC(=O)CCNS(=O)(=O)c2ccc3c(c2)oc(=O)n3C)cc1C: inactive
COC(=O)CCNc1ccc2c(c1)OCCO2: inactive
Cc1cccn2c(=O)c3cc(C(=O)NCc4ccccn4)n(C)c3nc12: active

Ask: // param item: `COc1ccc2nc(NC(=O)c3ccc(Br)s3)sc2c1` ; yields the recorded call
Reply: active

Ask: // param item: `COCCCNC(=O)c1ccc(CNS(=O)(=O)c2ccc(NC(C)=O)cc2)cc1` ; yields the recorded call
Reply: inactive

Ask: Call for entry `COc1ccc(NC(=O)c2cccc(NC(=O)c3ccco3)c2)c(OC)c1` :
Reply: inactive

Ask: // outcome(item) with item = `O=S(=O)(O)CCN1CCOCC1`
Reply: inactive

Ask: Test call, this molecule: `c1ccc(CCC2=NCCn3cccc32)cc1`
Reply: inactive

====

System tested: 3-hydroxyacyl-CoA dehydrogenase type-2 (Homo sapiens)
Measurement protocol: qHTS Assay for Inhibitors of HSD17B4, hydroxysteroid (17-beta) dehydrogenase 4
Run parameters: recombinant HSD17B10, NADH fluorescence kinetic; series mostly up to 57.1 µM
In all, about 75,000 compounds went through this assay and about 5,700 (7.6%) were called active. Not shown: some 7% with an inconclusive outcome. Calls come from the whole dose curve; as a rule, active = well fitted inhibition curve with a large enough effect; inconclusive = small, poorly fitted or top-dose-only effect; inactive = no such curve, though single readings can be large or run the other way. For the sample, actives were picked, then their nearest neighbours and some compounds at random.
Pick from T for active, F for inactive when you respond.

Cc1ccc(C)c(S(=O)(=O)n2cnc3ccccc32)c1: F
N#Cc1nc(-c2ccc(OCc3ccccc3)cc2)oc1NCCCN1CCOCC1: T
CC(C)OC(=O)CN1C(=O)c2ccccc2C1=O: F
CCCc1[nH]nc2c1C(c1ccc(OC(=O)c3ccco3)cc1)C(C#N)=C(N)O2 (stereo not given): F
COCCn1c(=O)[nH]c2cc(C(=O)NCc3cccnc3)ccc2c1=O: T
O=C(c1csnn1)N1CCC2(CCN(Cc3nccs3)CC2)CC1: F
CCOC(=O)C1=C(O)CSC1=Nc1cccc(Cl)c1: F
Cc1ccc(S(=O)(=O)c2c(N)n(C)c3nc4ccccc4nc23)cc1: T

Ask: Field: outcome | Entry: `COC(=O)N1CCC2(CCCN(c3ccncc3)C2)CC1`
Reply: F

Ask: Please share the test call associated with `CCCCOc1ccc(-c2ncc(C(=O)OCC)c(N)n2)cc1` .
Reply: T

Ask: Short answer needed: outcome of this test for `CCNCCCNCCCNCCCNCC` ?
Reply: F

Ask: GET /call?item= `CC(C)(C)NC(=O)NC(=O)COC(=O)Cn1c(C(F)(F)F)nc2ccccc21` returns the recorded outcome of this test.
Reply: F

Ask: Each compound tested received a call. Report the one for `N#Cc1nc(Cc2ccccc2)oc1NCCc1ccccc1` .
Reply: F

====

System tested: 3-hydroxyacyl-CoA dehydrogenase type-2 (Homo sapiens)
Measurement protocol: qHTS Assay for Inhibitors of HSD17B4, hydroxysteroid (17-beta) dehydrogenase 4;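 further: the protocol describes HADH2 (HSD17B10) and not the HSD17B4 of the title; nearly all actives have a fitted effect of over 70% in size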
Run parameters: recombinant HSD17B10, NADH fluorescence kinetic; series mostly up to 57.1 µM
In all, about 75,000 compounds went through this assay and about 5,700 (7.6%) were called active. Roughly 7% stayed inconclusive and do not appear here. The call rests on the fitted dose curve; in most records, active means well fitted inhibition curve with a large enough effect; inconclusive means small, poorly fitted or top-dose-only effect; inactive means no such curve, though single readings can be large or run the other way. The full list was thinned out, with actives kept by preference.
Use one of these outcomes when replying: active, inactive

Sample answers from the record:
CC1(C)OC2CC(=O)OC[C@@]23C1CC(=O)[C@]1(C)C3CC[C@@]2(C)C(c3ccoc3)OC(=O)C3O[C@@]321 (stereo not given in full): inactive
COc1ccc(C(=O)NCc2cn3ccccc3n2)cc1: active
Cc1cc(=O)[nH]c(SCc2cc(Cl)ccc2OC(F)F)n1: inactive
Cc1ccc(C(=O)OCC(=O)NCc2ccc3c(c2)OCO3)s1: inactive

Ask: Dear colleague, could you share the recorded outcome for O=C(Oc1cc(OC(=O)c2ccccc2)c2c(c1)OC(c1ccc(OC(=O)c3ccccc3)c(OC(=O)c3ccccc3)c1)[C@@H](OC(=O)c1ccccc1)C2)c1ccccc1 (stereo not given in full) when you have a moment?
Reply: inactive

====

System tested: 3-hydroxyacyl-CoA dehydrogenase type-2 (Homo sapiens)
Measurement protocol: qHTS Assay for Inhibitors of HSD17B4, hydroxysteroid (17-beta) dehydrogenase 4;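 further: the protocol describes HADH2 (HSD17B10) and not the HSD17B4 of the title; nearly all actives have a fitted effect of over 70% in size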
Run parameters: recombinant HSD17B10, NADH fluorescence kinetic; series mostly up to 57.1 µM
Description: Assay Overview: NIH Molecular Libraries Screening Centers Network [MLSCN] NIH Chemical Genomics Center [NCGC] Structural Genomics Consortium [SGC] […] An increase in the fluorescence intensity due to conversion of NAD+ to NADH was used to measure the enzyme activity. Assay Protocol: Buffer: 100 mM Tris-HCl pH 9.0, containing 0.01 % Tween-20. […] The fluorescence intensity difference between the last and the first time points was used to compute reaction progress.
Hit rate of the full screen: of about 75,000 compounds, about 5,700 (7.6%) were called active. Roughly 7% stayed inconclusive and do not appear here. Calls come from the whole dose curve; as a rule, active = well fitted inhibition curve with a large enough effect; inconclusive = small, poorly fitted or top-dose-only effect; inactive = no such curve, though single readings can be large or run the other way. What follows is part of a selection rich in actives, with near analogues and random picks from the rest.
Result category, one only: label 1 for active, label 0 for inactive

CCCC(=O)Nc1cc(OCC)c(NC(=O)NC2CCCCC2)cc1OCC: label 0
CN1CCN(c2cc(=O)n(-c3ccc(Cl)cc3)c(=O)[nH]2)CC1: label 0
CC(=O)N1CCC(C(=O)Nc2nc(-c3ccccc3)ns2)CC1: label 1
CCCCC/C=C/C=C/C=O: label 0
Cn1c(CNC(=O)C(C)(C)C)nc2ccccc21: label 0
COc1cc(C2C(C(=O)Nc3ccccc3OC)=C(C)Nc3ncnn32)ccc1O (stereo not drawn): label 0
Cc1cc(C(=O)OCC(=O)c2c(N)n(C)c(=O)n(C)c2=O)c(C)o1: label 0
Cc1cc(C(F)(F)F)nn1-c1nc(-c2ccco2)cc(C(F)(F)F)n1: label 1

Ask: Please share the test call associated with CCCn1c(C(O)c2ccc(OCC)cc2)nc2ccccc21 (stereo not drawn) .
Reply: label 0

Ask: Assay result, entry `C=CCOc1ccc(/C=N/n2cncn2)cc1OC` — outcome?
Reply: label 1

====

System tested: 3-hydroxyacyl-CoA dehydrogenase type-2 (Homo sapiens) (UniProt Q99714)
Measurement protocol: qHTS Assay for Inhibitors of HSD17B4, hydroxysteroid (17-beta) dehydrogenase 4;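 further: the protocol describes HADH2 (HSD17B10) and not the HSD17B4 of the title; nearly all actives have a fitted effect of over 70% in size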
Run parameters: recombinant HSD17B10, NADH fluorescence kinetic; series mostly up to 57.1 µM
The campaign covered roughly 75,000 compounds. About 5,700 (7.6%) were called active. Inconclusive results (about 7%) are left out. The call rests on the fitted dose curve; in most records, active means well fitted inhibition curve with a large enough effect; inconclusive means small, poorly fitted or top-dose-only effect; inactive means no such curve, though single readings can be large or run the other way. The list comes from a sample in which actives are over-represented; it also holds close analogues and randomly drawn compounds.
Thanks in advance; please answer with one of these: 1.0 for active, 0.0 for inactive

CCn1nc(NC(=O)c2ccco2)c2cc3ccc(C)cc3nc21: 1.0
CC(=O)Oc1cccc(N2C(=O)C3CC=C(Cl)CC3C2=O)c1 (configuration not stated): 0.0
COC(=O)C1(C)C=CC2(CCCCC2)N1C(C)=O (configuration not stated): 0.0

Ask: Which outcome was entered for the molecule `Cc1ccnc(NC(=O)c2ccc(NC(=O)c3ccco3)cc2)c1` in this test?
Reply: 0.0

Ask: Check the results log: what was the call for COc1ccc(N2C(=O)CCC(C(=O)Nc3ccccn3)C2c2ccc(OC)c(OC)c2)cc1 (configuration not stated) ?
Reply: 0.0

Ask: How was OC(COc1cccc(OCC(O)CN2CCCC2)c1)CN1CCCC1 (configuration not stated) classified in this test?
Reply: 0.0

Ask: State the result this test recorded for `CN(C)CCCCNC(=O)c1ccc(Cc2nc3ccccc3[nH]2)cc1` .
Reply: 0.0

====

System tested: 3-hydroxyacyl-CoA dehydrogenase type-2 (Homo sapiens)
Measurement protocol: qHTS Assay for Inhibitors of HSD17B4, hydroxysteroid (17-beta) dehydrogenase 4;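 further: the protocol describes HADH2 (HSD17B10) and not the HSD17B4 of the title; nearly all actives have a fitted effect of over 70% in size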
Run parameters: recombinant HSD17B10, NADH fluorescence kinetic; series mostly up to 57.1 µM
The whole screen tested about 75,000 compounds, of which about 5,700 (7.6%) were called active. Roughly 7% stayed inconclusive and do not appear here. Calls follow the shape of the dose curve; as a rule, active = well fitted inhibition curve with a large enough effect; inconclusive = small, poorly fitted or top-dose-only effect; inactive = no such curve, though single readings can be large or run the other way. The sample as a whole holds a higher share of actives than the screen did.
Outcome (select one): active, inactive

# count of solved cases: 6
CCOC(=O)N1CCC(NC(=O)COc2cc(=O)n(C)c3ccccc23)CC1: inactive
Cc1cc(N2CCCC2)n2nc(C)c(-c3ccccc3)c2n1: inactive
Cc1ccc(S(=O)(=O)NC(=O)NN2C[C@H]3CCC[C@@H]3C2)cc1: inactive
CCOC(=O)N1CCN(C(=O)CNC(=O)Cc2ccc(Cl)cc2)CC1: inactive
CCOC(=O)N1CCN(C(=O)c2ccc3nc4cc(Cl)ccc4c(=O)n3c2)CC1: active
CCOC(=O)c1ccc2[nH]c(C)c(CN3CCN(C)CC3)c(=O)c2c1: inactive

We next turn to a different compound, shown below.
Ask: Assay outcome for `COc1cc2[nH]c(=O)n(CCC(=O)NC3CCN(Cc4ccccc4)CC3)c(=O)c2cc1OC` : what was it?
Reply: inactive
